# credit: patent US20170355774A1

Target: T1, mfGITR.mmh (Macaca fasicularis)
T1 construct: soluble monomeric construct; also called Macaca fasicularis (mf) GITR.mmh; cynomolgus GITR protein
T1 chain: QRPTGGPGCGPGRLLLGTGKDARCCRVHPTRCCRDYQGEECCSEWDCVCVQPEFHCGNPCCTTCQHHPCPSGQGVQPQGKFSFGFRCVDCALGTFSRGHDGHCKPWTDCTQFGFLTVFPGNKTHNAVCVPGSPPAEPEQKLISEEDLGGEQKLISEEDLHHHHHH
Assay: SPR 37C, mAb capture
pKd: −log10 of the molar value.
Below, each entry is listed with its recorded pKd.

>  <binder>
H4H14508P (antibody, human IgG4, V domains shown, human IgG4 (H4H)) VH: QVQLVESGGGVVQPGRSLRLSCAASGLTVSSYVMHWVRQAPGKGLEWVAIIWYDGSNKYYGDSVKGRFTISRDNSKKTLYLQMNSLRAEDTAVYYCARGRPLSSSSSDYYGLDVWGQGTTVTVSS VL: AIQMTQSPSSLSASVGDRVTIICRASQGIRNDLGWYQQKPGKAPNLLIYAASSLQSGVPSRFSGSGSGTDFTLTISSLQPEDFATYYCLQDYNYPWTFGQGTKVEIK

>  <pKd>
7.41

$$$$
>  <binder>
H1H14474P (antibody, human IgG1, V domains shown, human IgG1 (H1H)) VH: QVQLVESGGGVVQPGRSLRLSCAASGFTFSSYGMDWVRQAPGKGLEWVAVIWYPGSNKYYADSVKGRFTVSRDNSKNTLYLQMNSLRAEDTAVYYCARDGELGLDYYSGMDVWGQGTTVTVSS VL: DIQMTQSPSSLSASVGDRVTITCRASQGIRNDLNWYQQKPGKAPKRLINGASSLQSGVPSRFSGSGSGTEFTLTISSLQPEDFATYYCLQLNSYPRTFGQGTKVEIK

>  <pKd>
7.55

$$$$
>  <binder>
H1H14523P (antibody, human IgG1, V domains shown, human IgG1 (H1H)) VH: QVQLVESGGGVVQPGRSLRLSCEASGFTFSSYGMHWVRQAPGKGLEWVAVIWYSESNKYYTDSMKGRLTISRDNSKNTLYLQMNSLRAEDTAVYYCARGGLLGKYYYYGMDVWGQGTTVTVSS VL: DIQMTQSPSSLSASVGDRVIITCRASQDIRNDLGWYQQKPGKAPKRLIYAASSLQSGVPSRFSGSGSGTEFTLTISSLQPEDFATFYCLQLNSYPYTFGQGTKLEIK

>  <pKd>
7.05

$$$$
>  <binder>
H4H14475P (antibody, human IgG4, V domains shown, human IgG4 (H4H)) VH: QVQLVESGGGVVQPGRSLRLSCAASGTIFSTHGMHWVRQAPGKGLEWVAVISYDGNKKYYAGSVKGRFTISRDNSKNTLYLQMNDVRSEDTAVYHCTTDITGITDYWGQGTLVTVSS VL: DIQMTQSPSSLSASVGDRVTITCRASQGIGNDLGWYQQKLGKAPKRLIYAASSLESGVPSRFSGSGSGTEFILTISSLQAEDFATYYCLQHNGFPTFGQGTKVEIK

>  <pKd>
7.38

$$$$
